target: Glyceraldehyde-3-phosphate dehydrogenase, glycosomal (Trypanosoma cruzi, UniProt P22513); experiment: Non-competitive inhibition of Trypanosoma cruzi recombinant glycosomal GAPDH expressed in Escherichia coli assessed as dissociation constant for ternary enzyme-substrate-inhibitor complex using D-glyceraldehyde-3-phosphate substrate by Lineweaver-Burk plot method
Sequence (P22513 whole entry): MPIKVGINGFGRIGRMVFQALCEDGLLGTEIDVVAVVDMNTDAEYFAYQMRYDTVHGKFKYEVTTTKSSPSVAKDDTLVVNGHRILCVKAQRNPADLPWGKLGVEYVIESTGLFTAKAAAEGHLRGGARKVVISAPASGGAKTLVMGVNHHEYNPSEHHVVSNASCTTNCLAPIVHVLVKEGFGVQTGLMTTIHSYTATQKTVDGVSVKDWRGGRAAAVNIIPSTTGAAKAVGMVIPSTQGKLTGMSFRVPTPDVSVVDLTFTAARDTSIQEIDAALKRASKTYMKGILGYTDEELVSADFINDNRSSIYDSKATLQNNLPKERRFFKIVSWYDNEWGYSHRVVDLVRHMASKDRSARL
pKi: −log10 of the molar value.
assay readout: pKi

1: C=CC/C=C\C/C=C\CCCCCCCc1cccc(O)c1C(=O)O
2: CCCCCCCCCCCCc1cccc(O)c1C(=O)O
-- ask Sort 1 and 2 by pKi descending and give the first. Output the label that corresponds to your choice.
-- reply 1

###

biological target: UniProtKB P22513; experiment: Non-competitive inhibition of Trypanosoma cruzi recombinant glycosomal GAPDH expressed in Escherichia coli assessed as dissociation constant for binary enzyme-inhibitor complex using D-glyceraldehyde-3-phosphate substrate by Lineweaver-Burk plot method
pKi: −log10 of the molar value.
assay readout: pKi

A: C=CC/C=C\C/C=C\CCCCCCCc1cccc(O)c1C(=O)O
B: CCCCCCCCCCCCc1cccc(O)c1C(=O)O
-- ask Higher pKi between A and B ? Response format: the label of the selected entry.
-- reply A

###

target: Glyceraldehyde-3-phosphate dehydrogenase, glycosomal (Trypanosoma cruzi, UniProt P22513); test: Non-competitive inhibition of Trypanosoma cruzi recombinant glycosomal GAPDH expressed in Escherichia coli assessed as dissociation constant for ternary enzyme-substrate-inhibitor complex using NAD+ substrate by Lineweaver-Burk plot method
assay readout: Ki (µM)

I: C=CC/C=C\C/C=C\CCCCCCCc1cccc(O)c1C(=O)O [ANACARDIC ACID]
II: CCCCCCCCCCCCc1cccc(O)c1C(=O)O
-- ask Between item I and item II , which reported Ki is smaller? Answer with the label corresponding to your selection.
-- reply I
(I: 6 µM, II: 43 µM)

###

target: Glyceraldehyde-3-phosphate dehydrogenase, glycosomal (Trypanosoma cruzi, UniProt P22513); assay: Inhibition of Trypanosoma cruzi recombinant glycosomal GAPDH expressed in Escherichia coli using GAPDH and D-glyceraldehyde-3-phosphate
pIC50: −log10 of the molar value.
assay readout: pIC50

Example entries and their recorded answers appear below.
- compound: "O=C(O)c1c(O)cccc1CCCCCCO"
  tested target: "Glyceraldehyde-3-phosphate dehydrogenase, glycosomal (Trypanosoma cruzi, UniProt P22513)"
  pIC50: "< 3.60"
- compound: "CCOC(=O)c1c(C=CCCCCOC2CCCCO2)cccc1OC (mixture of isomers)"
  tested target: "Glyceraldehyde-3-phosphate dehydrogenase, glycosomal (Trypanosoma cruzi, UniProt P22513)"
  pIC50: "< 3.52"
- compound: "CCOC(=O)c1c(O)cccc1CCCCCCCCCCO"
  tested target: "Glyceraldehyde-3-phosphate dehydrogenase, glycosomal (Trypanosoma cruzi, UniProt P22513)"
  pIC50: "< 3.60"
- compound: "CCCCCCCCCCCCc1cccc(OC)c1C(=O)OCC"
  tested target: "Glyceraldehyde-3-phosphate dehydrogenase, glycosomal (Trypanosoma cruzi, UniProt P22513)"
  pIC50: "< 3.60"
- compound: "CCOC(=O)c1c(C=CCCCCCCOC2CCCCO2)cccc1OC (mixture of isomers)"
  tested target: "Glyceraldehyde-3-phosphate dehydrogenase, glycosomal (Trypanosoma cruzi, UniProt P22513)"
  pIC50: "< 3.52"

-- ask Requested field: pIC50. Item: CCCCCCCCCCC=Cc1cccc(OC)c1C(=O)OCC (mixture of isomers)
-- reply < 3.52

-- ask Record request: pIC50 value, item `O=C(O)c1c(O)cccc1CCCCCCCCO`
-- reply < 3.60

-- ask Please look up its pIC50: `CCCCCCCCCc1cccc(O)c1C(=O)OCC`
-- reply < 3.60

-- ask Bench note: what pIC50 did `CCCCCCCCCCCCc1cccc(O)c1C(=O)OCC` show?
-- reply 3.67

-- ask Consider the compound CCOC(=O)c1c(C=CCCCCCCCCOC2CCCCO2)cccc1OC (mixture of isomers) and give its measured pIC50.
-- reply < 3.52

-- ask Look up pIC50: `O=CCCCCCCCc1cccc(O)c1C(=O)O`
-- reply < 3.60

-- ask // lookup pIC50 for `O=C(O)c1c(O)cccc1CCCCCCCCCCO`
-- reply 3.62
